Reference for the values: PubChem BioAssay (NCI)

Each item that follows carries a reported TGI.
system: SN12C renal; test: NCI tumour cell line growth inhibition, 48 h

Sample answers from the record:
N=c1ccc2nc3ccc(N)cc3sc-2c1: 11 µM
COc1ccc(-c2c(-c3ccc(OC)cc3)n3c(=O)n(C)c(=O)n23)cc1: > 100 µM
CC1CC2(S(=O)(=O)c3ccccc3)ON1CC2S(=O)(=O)c1ccccc1 (stereo unspecified): > 100 µM
O=c1[nH]c(SCc2cccc([N+](=O)[O-])c2)nc2nc[nH]c12: > 100 µM
COC(=O)C(=O)C(CC(=O)Nc1ccc(C)cc1)C(=O)OC (stereo unspecified): > 100 µM

Next, consider the following molecule.
Request the reported TGI associated with `O=C(Nc1cccc2[nH]c(C(F)(F)F)nc12)c1cc(Cl)ccc1Cl`
9.59 µM
